target: HER2 (Homo sapiens (Human), UniProt P04626 23-652); assay: phage ELISA, A450 target/A450 IgG1-Fc

>  <BINDER>
SEQ ID NO 934 (designed binder) MGSWSEFWFRLHAILYRLQALGGSEAELAAFEKEIAAFESELQAYKGKGNPEVETLRDAAAEIRVALQAYRHN

>  <ELISA_avg / ratio>
14.8

$$$$
>  <BINDER>
SEQ ID NO 920 (designed binder) MGSWYEFRWRLHAIWLRLGALGGSEAELAAFEKEIAAFESELQAYKGKGNPEVEWLRQDAAQIRYILQAYRHN

>  <ELISA_avg / ratio>
7.18

$$$$
>  <BINDER>
SEQ ID NO 929 (designed binder) MGSWWEFKIRLYAIEYRLNALGGSEAELAAFEKEIAAFESELQAYKGKGNPEVEALRAKAAQIRYNLQAYRHN

>  <ELISA_avg / ratio>
4.49

$$$$
>  <BINDER>
SEQ ID NO 935 (designed binder) MGSWIEFWVRLNAILYRLYALGGSEAELAAFEKEIAAFESELQAYKGKGNPEVEALRDSAAEIRRWLQAYRHN

>  <ELISA_avg / ratio>
3.91

$$$$
